- Tested on: Inhibin beta A chain (activin A)
- assay info: small molecules binding activin A – biochemical, small-molecule microarray, 635 nm fluorescence scan, primary screen (AID 1107);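 note: mouse activin A protein probed at 4.33 µg/mL on printed slides; score merges bound-protein fluorescence near 667 nm with spot signal-to-noise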
- particulars: INHBA, higher = more signal
readout kind: composite z-score

compound	measured target	value
CC(C)(C)OC(=O)CC[C@]1(C(N)=O)N=C(c2ccc(OCCCO)cc2)O[C@H]1c1ccccc1	Inhibin beta A chain (activin A)	0.976
O=C(CS)NCCCCCNC(=O)[C@@H]1C[C@@H]2C(=O)NCC(=O)N2[C@@H]1c1ccc(O)cc1	Inhibin beta A chain (activin A)	0.606
CC(C)CCC[C@@H](C)[C@H]1CC[C@@]2(C)C3=C(CC[C@]12C)[C@@]1(C)CC[C@H](OC(=O)c2ccc(C(F)(F)F)nc2)C(C)(C)C1CC3 (some centres undefined)	Inhibin beta A chain (activin A)	-0.0544
COCCOC(=O)N1C(=O)[C@@]2(c3ccccc31)[C@H](C(=O)N1CCCCCCC1)[C@H]1C(=O)O[C@H](c3ccccc3)[C@H](c3ccccc3)N1[C@@H]2c1ccc(OCCO)cc1	Inhibin beta A chain (activin A)	1.77
